Target of assay: soluble guanylate cyclase (sGC) (Rattus norvegicus (Rat), UniProt P20595)
Sequence (P20595 whole entry): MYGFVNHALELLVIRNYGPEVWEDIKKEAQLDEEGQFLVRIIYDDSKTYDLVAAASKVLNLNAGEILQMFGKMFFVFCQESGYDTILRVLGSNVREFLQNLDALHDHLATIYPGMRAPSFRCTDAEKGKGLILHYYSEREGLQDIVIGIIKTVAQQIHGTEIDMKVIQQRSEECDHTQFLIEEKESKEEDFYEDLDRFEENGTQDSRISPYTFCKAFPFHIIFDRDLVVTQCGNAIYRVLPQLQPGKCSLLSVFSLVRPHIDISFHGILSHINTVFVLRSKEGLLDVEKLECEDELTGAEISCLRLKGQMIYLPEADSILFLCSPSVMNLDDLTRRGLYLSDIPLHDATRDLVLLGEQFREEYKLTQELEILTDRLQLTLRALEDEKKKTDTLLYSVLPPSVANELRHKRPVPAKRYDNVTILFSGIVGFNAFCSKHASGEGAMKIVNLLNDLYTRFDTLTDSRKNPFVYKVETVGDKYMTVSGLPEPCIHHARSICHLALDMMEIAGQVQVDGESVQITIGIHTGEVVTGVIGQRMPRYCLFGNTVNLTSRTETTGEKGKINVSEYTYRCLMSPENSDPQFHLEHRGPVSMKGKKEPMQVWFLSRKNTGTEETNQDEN
Sequence (P19686 whole entry partner): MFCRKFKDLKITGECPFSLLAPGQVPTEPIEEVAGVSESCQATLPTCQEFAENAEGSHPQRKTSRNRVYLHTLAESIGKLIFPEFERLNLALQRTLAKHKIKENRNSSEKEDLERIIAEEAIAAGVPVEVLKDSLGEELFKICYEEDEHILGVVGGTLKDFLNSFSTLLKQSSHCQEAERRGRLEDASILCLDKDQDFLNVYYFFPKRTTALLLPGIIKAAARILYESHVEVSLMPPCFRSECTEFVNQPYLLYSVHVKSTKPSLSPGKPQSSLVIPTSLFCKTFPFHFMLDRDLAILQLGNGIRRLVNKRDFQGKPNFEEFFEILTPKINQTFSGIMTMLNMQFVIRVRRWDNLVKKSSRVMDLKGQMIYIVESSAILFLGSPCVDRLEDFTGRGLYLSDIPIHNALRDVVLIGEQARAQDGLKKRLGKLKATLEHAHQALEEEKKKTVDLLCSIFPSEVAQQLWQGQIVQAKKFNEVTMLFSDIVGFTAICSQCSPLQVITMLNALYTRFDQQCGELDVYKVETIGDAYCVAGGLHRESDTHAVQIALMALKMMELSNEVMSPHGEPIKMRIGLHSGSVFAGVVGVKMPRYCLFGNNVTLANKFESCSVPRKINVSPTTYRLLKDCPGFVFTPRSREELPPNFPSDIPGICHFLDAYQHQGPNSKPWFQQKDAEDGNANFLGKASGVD
Protocol details: Stimulation of sGC enzyme activity (PPi detection, luciferase)
Settings: sGC enzyme in vitro; read-out: EC50 (concentration at 50% of maximum efficacy), activating action at the sGC enzyme
Measured parameter: EC50 (µM)
Reply numerically in µM, unit not repeated.

>  <Molecule>
COC(C)(C)C(CC(=O)O)c1ccc(Cl)c(NC(=O)[C@H](c2ccc(Cl)cc2)[C@@H](C)C(F)(F)F)c1 (stereo partly shown) [Example 25]

>  <EC50 (µM)>
0.22

$$$$
>  <Molecule>
CC(C)C(CC(=O)O)c1ccc(Cl)c(NC(=O)[C@H](c2ccc(Cl)cc2)[C@@H](C)C(F)(F)F)c1 (single isomer, unassigned; (+)) [Example 1]

>  <EC50 (µM)>
0.022

$$$$
>  <Molecule>
C[C@H]([C@H](C(=O)Nc1cc(C(CC(=O)O)C2CC2)ccc1Cl)c1ccc(Cl)cc1)C(F)(F)F (single isomer, unassigned; (+)) [Example 22]

>  <EC50 (µM)>
0.068

$$$$

Let us move to another entry and its EC50.
Problem: # get_value(readout= EC50, system= soluble guanylate cyclase (sGC) (Rattus norvegicus (Rat), UniProt P20595)) for C[C@H]([C@H](C(=O)Nc1cc(C(C)(CC(=O)O)C2CCC2)ccc1Cl)c1ccc(Cl)cc1)C(F)(F)F (single isomer, unassigned) [Example 5]
Solution: 0.0052
